Reference for the values: patent US20140004243A1

biological target: Human ENaC δ, β and γ subunit (Homo sapiens, UniProt P51168+P51170+P51172); construct: expressed in transfected cells; host or cells: Xenopus laevis (African clawed frog) oocytes injected with cRNA; assay: Measurement of ENaC activation potency (MED) in ENaC-expressing oocyte, Two Electrode Voltage Clamp; format: cell-based; conditions: minimum effective dose at which current started to increase; ENaC-expressing African clawed frog oocyte; smaller MED = higher ENaC activation potency
Sequence (P51172 whole entry): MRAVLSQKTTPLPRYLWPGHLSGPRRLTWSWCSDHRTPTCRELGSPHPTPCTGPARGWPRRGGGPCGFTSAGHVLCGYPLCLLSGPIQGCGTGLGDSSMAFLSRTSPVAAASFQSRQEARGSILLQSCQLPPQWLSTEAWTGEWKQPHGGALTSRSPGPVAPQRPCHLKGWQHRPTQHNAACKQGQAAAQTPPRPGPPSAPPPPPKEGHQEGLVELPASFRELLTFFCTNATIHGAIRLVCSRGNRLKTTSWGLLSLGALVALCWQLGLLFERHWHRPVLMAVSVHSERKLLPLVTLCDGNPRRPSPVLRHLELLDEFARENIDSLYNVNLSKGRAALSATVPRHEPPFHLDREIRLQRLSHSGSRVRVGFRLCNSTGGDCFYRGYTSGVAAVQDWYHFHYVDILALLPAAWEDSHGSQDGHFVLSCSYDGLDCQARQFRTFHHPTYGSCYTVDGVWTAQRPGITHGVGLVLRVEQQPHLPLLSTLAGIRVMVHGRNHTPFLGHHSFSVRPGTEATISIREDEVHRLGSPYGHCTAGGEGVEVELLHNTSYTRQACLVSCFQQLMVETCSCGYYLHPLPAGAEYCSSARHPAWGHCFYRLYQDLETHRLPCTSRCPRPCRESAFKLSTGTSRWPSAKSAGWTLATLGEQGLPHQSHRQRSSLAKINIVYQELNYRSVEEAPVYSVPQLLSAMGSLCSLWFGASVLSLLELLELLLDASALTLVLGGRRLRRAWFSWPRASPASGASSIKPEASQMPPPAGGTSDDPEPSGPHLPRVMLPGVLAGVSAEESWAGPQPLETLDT
Sequence (P51168 whole entry): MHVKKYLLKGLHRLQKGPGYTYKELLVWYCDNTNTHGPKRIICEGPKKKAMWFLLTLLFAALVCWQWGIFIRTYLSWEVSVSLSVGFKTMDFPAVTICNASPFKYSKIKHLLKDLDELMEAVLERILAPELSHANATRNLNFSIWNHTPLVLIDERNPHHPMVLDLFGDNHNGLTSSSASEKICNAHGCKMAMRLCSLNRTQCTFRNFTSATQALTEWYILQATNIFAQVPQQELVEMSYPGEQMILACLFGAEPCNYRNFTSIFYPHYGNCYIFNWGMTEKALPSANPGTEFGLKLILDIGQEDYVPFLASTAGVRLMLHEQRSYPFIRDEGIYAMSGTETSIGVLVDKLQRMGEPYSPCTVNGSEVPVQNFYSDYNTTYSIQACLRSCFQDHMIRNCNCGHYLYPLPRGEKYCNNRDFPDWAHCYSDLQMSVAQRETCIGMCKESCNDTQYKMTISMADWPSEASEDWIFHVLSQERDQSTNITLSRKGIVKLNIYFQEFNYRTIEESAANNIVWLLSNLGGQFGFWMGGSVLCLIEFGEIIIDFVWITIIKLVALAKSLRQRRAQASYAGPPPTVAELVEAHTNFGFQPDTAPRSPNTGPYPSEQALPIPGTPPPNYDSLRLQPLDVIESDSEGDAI
Sequence (P51170 whole entry): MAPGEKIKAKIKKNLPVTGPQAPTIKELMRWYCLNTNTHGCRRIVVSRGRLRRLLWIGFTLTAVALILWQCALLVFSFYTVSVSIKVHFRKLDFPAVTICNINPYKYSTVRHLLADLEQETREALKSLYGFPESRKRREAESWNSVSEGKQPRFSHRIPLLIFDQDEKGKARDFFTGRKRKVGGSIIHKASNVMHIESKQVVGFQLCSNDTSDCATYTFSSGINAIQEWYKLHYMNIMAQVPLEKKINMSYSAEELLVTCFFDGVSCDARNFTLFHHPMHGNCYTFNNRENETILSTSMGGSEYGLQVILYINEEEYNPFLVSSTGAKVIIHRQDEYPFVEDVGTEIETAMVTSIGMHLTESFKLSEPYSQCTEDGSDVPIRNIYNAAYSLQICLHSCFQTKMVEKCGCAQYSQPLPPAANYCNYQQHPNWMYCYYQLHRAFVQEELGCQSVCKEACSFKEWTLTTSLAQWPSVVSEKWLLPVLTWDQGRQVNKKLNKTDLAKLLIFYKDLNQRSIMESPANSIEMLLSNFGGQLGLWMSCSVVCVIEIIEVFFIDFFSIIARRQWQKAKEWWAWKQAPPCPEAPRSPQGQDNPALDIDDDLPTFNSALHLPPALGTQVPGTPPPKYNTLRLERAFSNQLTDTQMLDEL
PROPERTY_MEASURED: MED (µM)
Write the answer as a number in µM, unit excluded.

- COC[C@@H](Cc1ccccc1)NC(=S)NCc1ccccc1: 10
- S=C(NCCc1ccccc1)N(Cc1ccccc1)Cc1ccccc1: 30
- S=C(NCCc1ccccc1)NCc1ccco1: 1
- COc1cc2c(cc1OC)CN(C(=S)NCCc1ccccc1)CC2: 30

Enquiry: What reported MED corresponds to NC(=O)CNC(=S)NCc1ccccc1 on Human ENaC δ, β and γ subunit (Homo sapiens, UniProt P51168+P51170+P51172)?
Return: 30

Enquiry: Give recorded MED with Human ENaC δ, β and γ subunit (Homo sapiens, UniProt P51168+P51170+P51172) for the following molecule: S=C(CCc1ccccc1)NCCc1ccccc1
Return: 10

Enquiry: Fill in the recorded MED for this molecule, with Human ENaC δ, β and γ subunit (Homo sapiens, UniProt P51168+P51170+P51172) as test system: OC[C@H](Cc1ccccc1)NC(=S)NCc1ccccc1
Return: 1
